// provenance: the supplement of paper PMC7877785

assay: self-splicing fitness, log relative to wild type (ln ratio); higher = more splicing; Tetrahymena group I intron in knt gene, E. coli kanamycin selection, DiMSum; sequences stand for … in CUCUCU…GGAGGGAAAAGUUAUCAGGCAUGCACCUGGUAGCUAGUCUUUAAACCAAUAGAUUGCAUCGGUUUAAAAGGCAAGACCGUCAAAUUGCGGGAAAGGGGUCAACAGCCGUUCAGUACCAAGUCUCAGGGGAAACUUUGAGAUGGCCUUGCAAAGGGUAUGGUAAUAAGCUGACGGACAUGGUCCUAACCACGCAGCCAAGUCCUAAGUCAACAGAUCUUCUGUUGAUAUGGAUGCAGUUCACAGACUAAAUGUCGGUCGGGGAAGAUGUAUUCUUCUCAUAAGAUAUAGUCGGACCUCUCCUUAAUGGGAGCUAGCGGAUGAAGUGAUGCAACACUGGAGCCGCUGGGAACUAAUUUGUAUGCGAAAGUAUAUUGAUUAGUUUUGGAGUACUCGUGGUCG; conditions: 30 °C;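 note: selection with 25 µg/mL kanamycin versus none on LB agar overnight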
Class 1: self-splicing fitness (ln) at least -3. Class 0: self-splicing fitness (ln) below -3.

sequence_chain=AACUAGCAAUAUUACGGUGU group_label=1
sequence_chain=AUUUAGCAAUAUUACGAGUU group_label=1
sequence_chain=GACGAGCAAUAUUACGUCCA group_label=1
sequence_chain=UUGGAGCAAUAUUACGACUA group_label=1
sequence_chain=GCAUAGCAAUAUUACGAGGC group_label=0
sequence_chain=UGCCAGCAAUAUUACGGGUC group_label=0
sequence_chain=GGUCAGCAAUAUUACGUCAU group_label=1
sequence_chain=UUUAAGCAAUAUUACGUCAG group_label=1
sequence_chain=CCGCAGCAAUAUUACGCAAC group_label=0
sequence_chain=CAUCAGCAAUAUUACGAUUA group_label=1
sequence_chain=ACCCAGCAAUAUUACGUCCG group_label=0
sequence_chain=CAAAAGCAAUAUUACGUCUG group_label=1
sequence_chain=CACAAGCAAUAUUACGGACA group_label=1
sequence_chain=GAAAAGCAAUAUUACGCUUC group_label=0
sequence_chain=GGGAAGCAAUAUUACGAUUC group_label=1
sequence_chain=GCUUAGCAAUAUUACGGUAU group_label=1
sequence_chain=CUAAAGCAAUAUUACGCACG group_label=1
sequence_chain=ACAUAGCAAUAUUACGACAC group_label=1
sequence_chain=GAAGAGCAAUAUUACGCCGC group_label=1
sequence_chain=ACGCAGCAAUAUUACGUGCU group_label=0
sequence_chain=CCUGAGCAAUAUUACGUGUC group_label=0
sequence_chain=GGAUAGCAAUAUUACGAGUU group_label=1
sequence_chain=AUUCAGCAAUAUUACGGAAU group_label=1
sequence_chain=CGUCAGCAAUAUUACGGAGU group_label=0
sequence_chain=ACUUAGCAAUAUUACGAACG group_label=1
sequence_chain=GCAUAGCAAUAUUACGCGGC group_label=0
sequence_chain=GCCAAGCAAUAUUACGCGUG group_label=0
sequence_chain=AAUAAGCAAUAUUACGUUAU group_label=1
sequence_chain=ACUUAGCAAUAUUACGAUAC group_label=0
sequence_chain=CGCUAGCAAUAUUACGAUCG group_label=1
sequence_chain=GCGCAGCAAUAUUACGUGCU group_label=0
sequence_chain=CCUGAGCAAUAUUACGGGAC group_label=0
sequence_chain=GCGCAGCAAUAUUACGUUGA group_label=1
sequence_chain=AUCCAGCAAUAUUACGGACG group_label=1
sequence_chain=GCGAAGCAAUAUUACGGUAA group_label=1
sequence_chain=CGUUAGCAAUAUUACGUUUC group_label=0
sequence_chain=UGGGAGCAAUAUUACGCGUA group_label=1
sequence_chain=CCGUAGCAAUAUUACGGUAU group_label=0
sequence_chain=UCCGAGCAAUAUUACGAAAG group_label=0
sequence_chain=AUUGAGCAAUAUUACGUGAG group_label=1
sequence_chain=ACAUAGCAAUAUUACGGAUU group_label=0
sequence_chain=GUAGAGCAAUAUUACGCUAG group_label=1
sequence_chain=UCCAAGCAAUAUUACGAUAA group_label=1
sequence_chain=GUUAAGCAAUAUUACGAGUG group_label=1
sequence_chain=AUGGAGCAAUAUUACGUGGG group_label=0
sequence_chain=CACGAGCAAUAUUACGAGGA group_label=1
sequence_chain=AACGAGCAAUAUUACGUACU group_label=1
sequence_chain=AAGUAGCAAUAUUACGAAUG group_label=0
sequence_chain=UUACAGCAAUAUUACGGCCG group_label=1
sequence_chain=AAGUAGCAAUAUUACGCUCG group_label=1
sequence_chain=UGAUAGCAAUAUUACGCACU group_label=1
sequence_chain=AGACAGCAAUAUUACGCAAC group_label=0
sequence_chain=UUAUAGCAAUAUUACGGGCG group_label=1
sequence_chain=ACUUAGCAAUAUUACGGGCU group_label=1
sequence_chain=ACAUAGCAAUAUUACGUAUG group_label=1
sequence_chain=GUAAAGCAAUAUUACGGGAG group_label=0
sequence_chain=UUAUAGCAAUAUUACGUAAG group_label=1
sequence_chain=GGCCAGCAAUAUUACGGUCC group_label=0
sequence_chain=AAACAGCAAUAUUACGAGGA group_label=0
sequence_chain=CUAAAGCAAUAUUACGCAGC group_label=0
sequence_chain=CUUCAGCAAUAUUACGAACU group_label=0
sequence_chain=CCCUAGCAAUAUUACGAUAC group_label=1
